Just for reference, patent US20260137677A1 is where these values come from.

Test system: SARS-CoV-2 (SARS-CoV2/ZG/297-20) in Vero E6 cells
assay.summary: microbe, parasite or virus in culture
Type: cell-based
condition.context: Severe acute respiratory syndrome coronavirus 2, Vero C1008, 72 h, read-out: Antiviral Activity 50 uM
This listing pairs compounds with measured inhibition at 50 µM.

For orientation, consider the following solved cases.
compound | inhibition at 50 µM
O=C1CCC(N2C(=O)c3cccc(NCCOCCNC(=O)C(NC(=O)[C@@H](c4cccnc4)N(C(=O)c4ccco4)c4ccc5c(c4)oc4ccccc45)c4ccccc4)c3C2=O)C(=O)N1 (mixture of isomers) | < 0%
O=C1CCC(N2C(=O)c3cccc(OCCCCCCCCNC(=O)c4ccc5c(N6C(=O)NC7(CC(c8ccccc8Cl)C7)C6=O)cncc5c4)c3C2=O)C(=O)N1 (stereo not drawn) [Compound C10778T] | < 0%
O=C1CCC(N2C(=O)c3ccc(N4CCN(C(=O)[C@H](NC(=O)[C@@H](c5cccnc5)N(C(=O)c5ccco5)c5ccc(-c6ccccc6)cc5)c5ccccc5)CC4)cc3C2=O)C(=O)N1 (single isomer, unassigned) | < 0%

Recorded result, O=C1CCC(N2C(=O)c3cccc(NCCOCCOCCOCCOCCNC(=O)C(NC(=O)[C@@H](c4cccnc4)N(C(=O)c4ccco4)c4ccc5c(c4)oc4ccccc45)c4ccccc4)c3C2=O)C(=O)N1 (mixture of isomers) , inhibition at 50 µM: < 0%

Recorded result, O=C1CCC(N2C(=O)c3ccc(NCCCCCCNC(=O)c4ccc5c(N6C(=O)NC7(CC(c8ccccc8Cl)C7)C6=O)cncc5c4)cc3C2=O)C(=O)N1 (stereo not drawn) [Compound C10778W] , inhibition at 50 µM: < 0%

Recorded result, O=C1CCC(N2C(=O)c3cccc(NCCCNC(=O)[C@@H](NC(=O)[C@@H](c4cccnc4)N(C(=O)c4ccco4)c4ccc(-c5ccccc5)cc4)c4ccccc4)c3C2=O)C(=O)N1 (single isomer, unassigned) , inhibition at 50 µM: < 0%
